# Tested on: MCF7 breast
# assay protocol: NCI-60 one-dose screen, 48 h
# condition label: 10 µM unless noted
About 83,000 compounds went through this panel and 20% of them were active in at least one assay; those are over-represented in the sample as a whole. Calls of active or inactive are those of the source. The calls were made as follows: active = growth percent below 10; inactive = the rest.
Your response should consist of one outcome taken from active, inactive

What outcome does the record of this test show for CO[C@@H]1[C@H](OC(=O)NC(=O)CCl)CC[C@]2(CO2)[C@H]1[C@@]1(C)O[C@@H]1CC=C(C)C ? inactive

Tell me the recorded outcome of this test for CSc1ccccc1NP1(=O)OCC(C)([N+](=O)[O-])CO1 (stereo unspecified) . inactive

What was the test verdict on C[CH2][Pb]([CH2]C)([CH2]C)[O]C(=O)COc1ccccc1 ? active

Short answer needed: outcome of this test for Nc1c(Br)cc([N+](=O)[O-])cc1[N+](=O)[O-] ? inactive

Please state the recorded outcome for this compound: CC1CC=CCC12C(=O)NC(=S)NC2=O (stereo unspecified) inactive

Identify the outcome logged in this assay for the compound shown: CC(=O)[O][Hg][c]1nc2c(c(=O)n(C)c(=O)n2C)n1C inactive

I would be grateful if you could indicate the recorded call for CC1=C(SCCC(=O)OCC(=O)NCCC[Te]c2ccccc2)C(=O)c2ccccc2C1=O . active

I'd appreciate the recorded outcome for O=C(O)CNC(=O)c1ccccc1 from this test. inactive

I'd appreciate the recorded outcome for N#CC1c2ccccc2C=CN1C(=O)c1ccc(N(CCCl)CCCl)cc1 (stereo unspecified) from this test. inactive

Record lookup: outcome of this test for c1ccc([As]=[As]c2ccccc2)cc1 (stereo unspecified) ? active

Which outcome was assigned to C1CNC2CCCC2C1 (stereo unspecified) in this test? inactive

Recorded test call requested for Cc1ccc(C(=O)C2CN(C)CCC2(O)c2ccc(C)cc2)cc1 (stereo unspecified) inactive

Outcome logged for O=C1c2ccccc2C(=O)N1[N+](=O)[O-] in this assay: inactive

Dear colleague, could you share the recorded outcome for Cc1cc([N+](=O)[O-])c(Cl)cc1NS(=O)(=O)c1ccccc1 when you have a moment? inactive

Entry O=C1NC2(CCNCC2)Nc2ccccc21 : call = ? inactive

Write down the call the test reported for this compound. Item: CNc1ccc(C(=O)CC(O)CCC(C)C2OC(=O)CC(O)CC(=O)CC(O)CC(O)CC(O)CC(O)CC3(O)CC(O)C(C(=O)OC)C(CC(O[C@@H]4O[C@H](C)[C@@H](O)[C@H](N)[C@@H]4O)/C=C/C=C/C=C/C=C/C=C/C=C/C=C/C2C)O3)cc1 (stereo partly specified) active

Which outcome did this test record for the compound OC1CCCCC1N1CCC(c2ccccc2)CC1 (stereo unspecified) ? inactive

# lookup: test call for O=CN1N=C(c2ccc3c(c2)OCO3)CC1c1sc(N(CCCl)CCCl)nc1Cl (stereo unspecified) inactive

// param item: C=CCc1ccc(OC(=O)Cc2ccccc2)c(OC)c1 ; yields the recorded call inactive

Would you mind telling me which call this test gave CCCCOC(=O)c1ccccc1C(=O)O.CCCCOC(=O)c1ccccc1C(=O)O.[Cu+2] ? inactive

Test call for this compound, please: COC(=O)C(=[N+]=[N-])C(=O)OC inactive

How was C/C(=N/OC(=O)N(C)C)c1ccc(Cl)cc1Cl classified in this test? inactive

How did this test come out for Nc1ccc(N)c2c1Oc1ccccc1O2 ? inactive

Give the logged outcome of this assay for the following compound: COc1cc(N(CCCl)CCCl)ccc1C=Nc1ccccc1C(=O)O inactive

What is the recorded call for this compound in the test? CC(C)C1c2ccc(O)cc2Oc2nc(N)c(C#N)c(N)c21 (stereo unspecified) inactive

Record lookup: outcome of this test for OC1(c2ccc(Cl)cc2Cl)c2ccccc2C2=NCCN21 (stereo unspecified) ? inactive

Where do the numbers come from? From PubChem BioAssay (NCI).
